# measurementNotes: Prodrug conversion in dog liver assessed as nucleotide triphosphate level at 5 mg/kg, po co-dosed with 5 mg/kg sofosbuvir after 24 hrs
# Assay type: ADME, organism-based, Canis lupus familiaris
# studyConditions: in vivo
Parameter Drug metabolism: see the listing below.

>  <compound>
CC(C)OC(=O)[C@H](C)N[P@@](=O)(OC[C@H]1O[C@@H](n2ccc(=O)[nH]c2=O)[C@](Cl)(Br)[C@@H]1O)Oc1ccccc1

>  <uom>
µg/g

>  <Drug metabolism>
1.26

$$$$
>  <compound>
CC(C)C(=O)OC[C@H](C)NP(=O)(OC[C@H]1O[C@@H](n2ccc(=O)[nH]c2=O)[C@](Cl)(Br)[C@@H]1O)Oc1ccccc1 (some centres not stated)

>  <uom>
µg/g

>  <Drug metabolism>
1.12

$$$$
>  <compound>
CCOC(=O)C(C)(C)NP(=O)(OC[C@H]1O[C@@H](n2ccc(=O)[nH]c2=O)[C@](Cl)(Br)[C@@H]1O)Oc1ccccc1 (some centres not stated)

>  <uom>
µg/g

>  <Drug metabolism>
3.47

$$$$
>  <compound>
CCOC(=O)[C@H](C)NP(=O)(OC[C@H]1O[C@@H](n2ccc(=O)[nH]c2=O)[C@](Cl)(Br)[C@@H]1O)Oc1ccccc1 (some centres not stated)

>  <uom>
µg/g

>  <Drug metabolism>
3.18

$$$$
>  <compound>
CC(C)OC(=O)[C@H](C)N[P@](=O)(OC[C@H]1O[C@@H](n2ccc(=O)[nH]c2=O)[C@](Cl)(Br)[C@@H]1O)Oc1ccccc1

>  <uom>
µg/g

>  <Drug metabolism>
1.02

$$$$
>  <compound>
CC(C)OC(=O)[C@H](C)N[P@](=O)(OC[C@H]1O[C@@H](n2ccc(=O)[nH]c2=O)[C@](Cl)(Br)[C@@H]1OC(=O)[C@@H](N)C(C)C)Oc1ccccc1

>  <uom>
µg/g

>  <Drug metabolism>
2.89

$$$$
>  <compound>
CC(C)OC(=O)C(C)(C)NP(=O)(OC[C@H]1O[C@@H](n2ccc(=O)[nH]c2=O)[C@](Cl)(Br)[C@@H]1O)Oc1ccccc1 (some centres not stated)

>  <uom>
µg/g

>  <Drug metabolism>
3.43

$$$$

// provenance: ChEMBL document CHEMBL4627278
